# TESTED_SYSTEM: Human claudin 18.2 (CLDN18.2), wild-type (human)
# EXPERIMENT_SUMMARY: cell-based or functional assay
Reported EC50 (pM), ADCC Reporter Bioassay (luciferase, Jurkat effector cells) values are given for each entry in this list.
Your answer is read as pM, so omit the unit and give the number.

{"BINDER": "120B7B2-HC G57D&S104A-LC-N96E&N31E (antibody, V domains shown) VH: QVQLVQSGAEVKKPGASVKVSCKASGYTFTGYIIQWVRQAPGQRLEWMGFINPYNDDTKYNEQFKGRVTITRDTSASTAYMELSSLRSEDTAVYYCARAYFGNAFAYWGQGTLVTVSS VL: DIVMTQSPDSLAVSLGERATINCKSSQSLLESGNQKNYLTWYQQKPGQPPKLLIYWASTRESGVPDRFSGSGSGTDFTLTISSLQAEDVAVYYCQEGYYFPFTFGGGTKLEIK", "RECORDED_NUMBER": 493}
{"BINDER": "4F11E2 (HC N55E/LC S32A) (antibody, V domains shown) VH: EVQLVESGGGLVQPGGSLRLSCAASGFTFSTFGMHWVRQAPGKGLEWVSYITSGESPIYFTDTVKGRFTISRDNAKNSLYLQMNSLRAEDTAVYYCARSSYYGNSMDYWGQGTLVTVSS VL: DIVMTQSPDSLAVSLGERATINCRSSQSLLNAGNRKNYLTWYQQKPGQPPKLLIYWASTRESGVPDRFSGSGSGTDFTLTISSLQAEDVAVYYCQNAYSYPFTFGGGTKLEIK", "RECORDED_NUMBER": 148}

Now for a further binder.
EC50 (pM), ADCC Reporter Bioassay (luciferase, Jurkat effector cells) recorded for this binder, 4F11E2 -HC N55Q-LC N31E (antibody, V domains shown) VH: EVQLVESGGGLVQPGGSLRLSCAASGFTFSTFGMHWVRQAPGKGLEWVSYITSGQSPIYFTDTVKGRFTISRDNAKNSLYLQMNSLRAEDTAVYYCARSSYYGNSMDYWGQGTLVTVSS VL: DIVMTQSPDSLAVSLGERATINCRSSQSLLESGNRKNYLTWYQQKPGQPPKLLIYWASTRESGVPDRFSGSGSGTDFTLTISSLQAEDVAVYYCQNAYSYPFTFGGGTKLEIK , is 238
